test system: LOX IMVI; assay: NCI tumour cell line growth inhibition, 48 h
The source made the active and inactive calls. Rule as the data show it: active = GI50 up to about 1.1 µM and inactive = higher.
Respond using exactly one of the listed classes: 1 (active), 0 (inactive)

Previously resolved entries follow.
INSERT INTO measurements (compound, class) VALUES
  ('COc1ccc(C(SC2C(O)C(CO)OC2n2ccc(=O)[nH]c2=O)(c2ccccc2)c2ccc(OC)cc2)cc1 (stereo not given)', 0),
  ('CCCCC(CC)C(=O)Oc1ccc(C(=O)c2ccccc2)c(O)c1 (stereo not given)', 0),
  ('C/C(=C\CC[C@]1(C)OC(C)(C)OC1CC/C(C)=C/CO[Si](c1ccccc1)(c1ccccc1)C(C)(C)C)CC/C=C/CO[Si](C)(C)C(C)(C)C (stereo not given in full)', 0);

q: Could you please tell me the result logged for COC(=O)CCC(=O)C(C#N)c1ccc(Cl)cc1Cl (stereo not given) in this assay?
a: 0

q: Could you please tell me the result logged for `O=[N+]([O-])c1ccc(-c2noc(-c3ccc(Cl)cc3)c2C2=NCCN2)cc1` in this assay?
a: 0

q: Could you please tell me the result logged for CCN(CC)CCC1CCCCN1CC(=O)N1c2ccccc2NC(=O)c2ccccc21 (stereo not given) in this assay?
a: 0

q: Could you please tell me the result logged for `COc1ccc(Nc2nc(N)c(C(=O)c3ccccc3)s2)cc1` in this assay?
a: 1

q: Could you please tell me the result logged for `O=C(NCc1cccc2ccccc12)N/N=C\c1ccc(Cl)cc1` in this assay?
a: 0

q: Could you please tell me the result logged for O=C1c2ccccc2NC(c2cc(Cl)cc(Cl)c2O)N1CCc1ccccn1 (stereo not given) in this assay?
a: 0

q: Could you please tell me the result logged for CC[C@]1(Cc2ccc(OC)c(OC)c2)C=[N+]([O-])O[C@H](OC2CCCC2(c2ccccc2)c2ccccc2)[C@@H]1OC(=O)C(C)(C)C (stereo not given in full) in this assay?
a: 0

q: Could you please tell me the result logged for `Cc1cc(Cl)ccc1NC(=O)C(=O)Cc1nc2ccccc2o1` in this assay?
a: 0

q: Could you please tell me the result logged for CN1CN(c2ccccc2)C2(CCN(CC(C)(c3ccc(F)cc3)C3OCCCO3)CC2)C1=O (stereo not given) in this assay?
a: 0

q: Could you please tell me the result logged for COc1cccc(-c2nc(-c3cnccn3)n(C3OC(CO)C(O)C3O)n2)c1 (stereo not given) in this assay?
a: 0

q: Could you please tell me the result logged for `N=C(N)NC(=N)Nc1ccc(S(=O)(=O)O)cc1` in this assay?
a: 0

###

tested on: MCF7; assay: NCI tumour cell line growth inhibition, 48 h
Activity calls are given as the source filed them. No stated cut-off is given here; in the data, active = GI50 up to about 1.1 µM and inactive = higher.
Respond using exactly one of the listed classes: t for active, f for inactive

INSERT INTO assay_data (substance_smiles, class) VALUES
  ('CNC(=O)CCCNC(=O)CCCC(=O)N(C)C', 'f');

q: Could you please tell me the result logged for `N#C/C(=C\c1ccc(Cl)cc1)c1nc2ccccc2c(=O)[nH]1` in this assay?
a: f

q: Could you please tell me the result logged for `Cc1cccc(C)c1NC(=S)NC=C(C(N)=O)C(N)=O` in this assay?
a: f

q: Could you please tell me the result logged for `O=c1cc(/C=C/c2ccc(O)c(O)c2)oc(/C=C/c2ccc(O)c(O)c2)c1` in this assay?
a: f

q: Could you please tell me the result logged for `Nc1ccc2c(c1)S(=O)(=O)c1cc(N)ccc1-2` in this assay?
a: f

q: Could you please tell me the result logged for `CCCCC(=O)OC[n+]1ccc2c(C)c3[nH]c4ccc(OC)cc4c3c(C)c2c1` in this assay?
a: t
